# target-under-test: BRD9 (Homo sapiens, UniProt Q9H8M2)
# test-name: Degradation of BRD9 (IF), immunofluorescence in MV4-11 cells, 24 hours (Assay Protocol 2)
# Type: cell-based
# Design: A suspension of MV4-11 cells (ATCC CRL-9591) was prepared; host or cells: MV4-11
# condition-details: MV4-11, Assay protocol 2; BRD9 degradation; read-out: Dmax
measure: Dmax

Task: Entry COc1cc(-c2cn(C)c(=O)c(C)c2C)cc(OC)c1CN1CCN(S(=O)(=O)c2cccc3c2CCN(C(=O)/C(C#N)=C\C(C)(C)C)C3C)CC1 (mixture of isomers) , system BRD9 (Homo sapiens, UniProt Q9H8M2): what Dmax was measured?
Result: > 75%

Task: Entry COc1cc(-c2cn(C)c(=O)c(C)c2C)cc(OC)c1CN1CCN(C(=O)c2cccc(C3CCCN3C(=O)/C(C#N)=C/c3nccs3)c2)CC1 (stereo not drawn) , system BRD9 (Homo sapiens, UniProt Q9H8M2): what Dmax was measured?
Result: > 75%

Task: Entry COc1cc(-c2cn(C)c(=O)c(C)c2C)cc(OC)c1CN1CCN(Cc2cccc3c2CCN(C(=O)/C(C#N)=C/C2(CF)CC2)C3C)C2(CC2)C1 (mixture of isomers) , system BRD9 (Homo sapiens, UniProt Q9H8M2): what Dmax was measured?
Result: > 75%

----------
# target-under-test: BRD9 (Homo sapiens, UniProt Q9H8M2)
# Sequence (Q9H8M2 1-597): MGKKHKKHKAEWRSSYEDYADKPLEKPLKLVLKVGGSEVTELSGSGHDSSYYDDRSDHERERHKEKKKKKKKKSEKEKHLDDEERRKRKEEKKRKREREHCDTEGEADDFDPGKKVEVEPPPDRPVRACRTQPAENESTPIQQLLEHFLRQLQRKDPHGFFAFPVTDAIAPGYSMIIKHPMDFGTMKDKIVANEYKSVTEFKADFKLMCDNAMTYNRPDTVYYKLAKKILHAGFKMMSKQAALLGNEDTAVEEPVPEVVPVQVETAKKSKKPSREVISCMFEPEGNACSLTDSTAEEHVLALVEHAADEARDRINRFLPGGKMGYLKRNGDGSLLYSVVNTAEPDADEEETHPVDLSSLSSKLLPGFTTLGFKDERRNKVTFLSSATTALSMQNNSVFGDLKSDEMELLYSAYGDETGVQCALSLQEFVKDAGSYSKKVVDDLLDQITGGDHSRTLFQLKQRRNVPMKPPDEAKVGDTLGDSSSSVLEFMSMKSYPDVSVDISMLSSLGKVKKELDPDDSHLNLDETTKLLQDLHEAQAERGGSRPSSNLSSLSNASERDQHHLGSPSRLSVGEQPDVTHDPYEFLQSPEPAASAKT
# test-name: BRD9 degradation, HiBiT-BRD9 KI HEK293 (LgBiT) cells, NanoGlo Lytic Endpoint assay (Assay Protocol 1)
# Type: cell-based
# condition-details: HEK293; Table 2; BRD9 degradation, Assay Protocol 1; 1 μM compound at 6 h of treatment; read-out: Assay 1 Dmax
Quick list: Dmax at 1 µM per entry.

Task: Entry COc1cc(-c2cn(C)c(=O)c(C)c2C)cc(OC)c1CN1CCN(Cc2cccc3c2CCN(C(=O)/C(C#N)=C/c2cccc(Br)n2)C3C)CC1 (mixture of isomers) : reported Dmax at 1 µM = ?
Result: 70 to 75%

Task: Entry COc1cc(-c2cn(C)c(=O)c3cnccc23)cc(OC)c1CN1CCN(Cc2cccc3c2CCN(C(=O)/C(C#N)=C\c2ccon2)C3C)CC1 (mixture of isomers) : reported Dmax at 1 µM = ?
Result: 40 to 70%

Task: Entry COc1cc(-c2cn(C)c(=O)c(C)c2C)cc(OC)c1CN1CC2CC1CN2Cc1cccc2c1CCN(C(=O)/C(C#N)=C/c1cccc(Br)n1)C2C (mixture of isomers) : reported Dmax at 1 µM = ?
Result: > 75%

Further cases:
Task: Entry COc1cc(-c2cn(C)c(=O)c(C)c2C)cc(OC)c1CN1CC2CC1CN2Cc1cccc2c1CCN(C(=O)/C(C#N)=C/C(C)(C)C)C2C (mixture of isomers) : reported Dmax at 1 µM = ?
Result: 40 to 70%

Task: Entry COc1cc(-c2cn(C)c(=O)c3cnccc23)cc(OC)c1CN1CCN(Cc2cccc3c2CCN(C(=O)/C(C#N)=C\c2nc(C)cs2)C3C)CC1 (mixture of isomers) : reported Dmax at 1 µM = ?
Result: 40 to 70%

Task: Entry COc1cc(-c2cn(C)c(=O)c3cnccc23)cc(OC)c1CN1CCN(Cc2cccc3c2CCN(C(=O)/C(C#N)=C\c2ccns2)C3C)CC1 (mixture of isomers) : reported Dmax at 1 µM = ?
Result: 40 to 70%

Task: Entry COc1cc(-c2cn(C)c(=O)c3cnccc23)cc(OC)c1CN1CCN(Cc2cccc3c2CCN(C(=O)/C(C#N)=C/c2nc4ccccc4s2)C3C)CC1 (mixture of isomers) : reported Dmax at 1 µM = ?
Result: > 75%

Task: Entry COc1cc(-c2cn(C)c(=O)c(C)c2C)cc(OC)c1CN1CCCN(Cc2cccc3c2CCN(C(=O)/C(C#N)=C/C(C)(C)C)C3C)CC1 (mixture of isomers) : reported Dmax at 1 µM = ?
Result: 70 to 75%

Task: Entry COc1cc(-c2cn(C)c(=O)c3cnccc23)cc(OC)c1CN1CCN(Cc2cccc3c2CCN(C(=O)/C(C#N)=C/C2(C)CC2)C3C)CC1 (mixture of isomers) : reported Dmax at 1 µM = ?
Result: 40 to 70%
